Cited source for all entries: patent US20080038809A1

SUBJECT_OF_TEST: human GalNAc-T4 (UDP-GalNAc:polypeptide N-acetylgalactosaminyltransferase T4), secreted soluble enzyme (sT4), wild type (Homo sapiens)
Sequence (Q8N4A0 36-578 limits assumed): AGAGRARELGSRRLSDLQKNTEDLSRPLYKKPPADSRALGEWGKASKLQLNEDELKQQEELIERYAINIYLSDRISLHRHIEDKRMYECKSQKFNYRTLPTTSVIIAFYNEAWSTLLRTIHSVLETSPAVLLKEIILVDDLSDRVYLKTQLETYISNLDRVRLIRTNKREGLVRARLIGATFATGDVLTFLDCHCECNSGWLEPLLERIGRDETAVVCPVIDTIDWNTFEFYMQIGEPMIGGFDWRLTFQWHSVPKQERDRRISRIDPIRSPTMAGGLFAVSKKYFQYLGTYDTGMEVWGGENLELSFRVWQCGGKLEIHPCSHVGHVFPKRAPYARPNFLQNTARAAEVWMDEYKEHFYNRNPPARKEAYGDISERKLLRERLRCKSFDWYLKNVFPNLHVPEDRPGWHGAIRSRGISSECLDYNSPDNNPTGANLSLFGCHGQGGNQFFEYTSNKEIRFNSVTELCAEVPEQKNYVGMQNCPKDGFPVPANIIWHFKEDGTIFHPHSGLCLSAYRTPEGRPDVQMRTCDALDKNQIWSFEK
ASSAY_CONTEXT: read-out: Concentration required for 50% inhibition (IC50), binding to GalNAc-MUC1 glycopeptide
READOUT_NAME: pIC50
// pIC50: -log10(molar conc.)

[ask] Entry `CC(=O)N[C@H]1[C@@H](Oc2ccccc2)O[C@H](CO)[C@H](O)[C@@H]1O` : reported pIC50 = ?
[reply] 3.00

---

SUBJECT_OF_TEST: GalNAc-T2 lectin domain (Homo sapiens, UniProt Q10471)
Construct: comprises amino acid residues 408-571 of GALNT2; made in house; host or cells: baculovirus (pAcGP67-A), virus made in Sf9, protein produced in High Five insect cells
Sequence (Q10471 408-571): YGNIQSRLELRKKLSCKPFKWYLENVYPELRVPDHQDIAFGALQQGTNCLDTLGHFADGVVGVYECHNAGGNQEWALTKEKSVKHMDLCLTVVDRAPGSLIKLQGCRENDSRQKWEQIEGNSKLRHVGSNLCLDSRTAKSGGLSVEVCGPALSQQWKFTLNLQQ
TEST_DESCRIPTION: Inhibition of GalNAc-T2 lectin domain (T2ld) binding to GalNAc-MUC1 glycopeptide, ELISA
Procedure: Direct binding ELISA assay was developed as follows: Polystyrene microtiter plates (Maxisorb, Nunc, Denmark) were coated with peptides or enzymatically glycosylated glycopeptides in PBS overnight at 4° C. Plates were washed and blocked with 0.1% Tween20 and 0.2% BSA in PBS for 1 h at room temperature, followed by incubation with biotinylated proteins in PBS with 0.05% Tween20 for 2 h at room temperature. […]
pIC50: −log10 of the molar value.
READOUT_NAME: pIC50

[ask] Reported pIC50, compound `CC(=O)N[C@H]1[C@@H](OP(=O)(O)OP(=O)(O)OC[C@H]2O[C@@H](n3ccc(=O)[nH]c3=O)[C@H](O)[C@@H]2O)O[C@H](CO)[C@H](O)[C@@H]1O` : ____
[reply] < 1.00

[ask] Now the same for `CC(=O)N[C@H]1[C@@H](Oc2ccc([N+](=O)[O-])cc2)O[C@H](CO)[C@H](O)[C@@H]1O`
[reply] < 2.00

[ask] Next entry: OC[C@H]1O[C@@H](O[C@H]2[C@H](O)[C@@H](O)C(O)O[C@@H]2CO)[C@H](O)[C@@H](O)[C@H]1O (stereo partly drawn)
[reply] < 1.00
